- measured_target: Gal3S(b1-4)GlcNAc
- assay_comment: glycan array binding signal (z-score within array); higher = stronger binding
- stated_conditions: glycan notation: IUPAC condensed, linker removed
The sample as a whole holds a higher share of the strongest signals than the screen did.
measured_metric: glycan array binding signal (z-score)

[[record]]
binder = "CBP21 (Serratia marcescens), O83009 (protein) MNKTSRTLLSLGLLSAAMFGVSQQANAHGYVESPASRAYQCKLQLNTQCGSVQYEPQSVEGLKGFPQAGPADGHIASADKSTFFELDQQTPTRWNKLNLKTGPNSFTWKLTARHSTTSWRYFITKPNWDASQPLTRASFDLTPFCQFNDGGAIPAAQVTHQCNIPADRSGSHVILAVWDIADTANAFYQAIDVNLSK"
result = 1.21

[[record]]
binder = "Gz-CVNH (Gibberella zeae) (protein) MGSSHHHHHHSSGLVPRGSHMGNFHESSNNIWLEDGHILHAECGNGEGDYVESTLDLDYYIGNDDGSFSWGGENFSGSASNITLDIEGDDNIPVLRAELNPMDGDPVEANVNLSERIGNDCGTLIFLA"
result = -0.166

[[record]]
binder = "CBM32-4 (Clostridium perfringens), P26831 (protein) MGSSHHHHHHSSGLVPRGSHMASVYEPSLVDAYVGDDGAKKAVDGDLKTRVKFLGAPSTGDTIVYDLGQEILVDNLKYVVLDTEVDHVRDGKIQLSLDGETWTDAINIGDGVENGVDDMFSTPLKNGYKHGNQSGGIVPIDSAYVEGDNLNQKARYVRILFTAPYRHRWTVINELMINNGEYIPTVNDPT"
result = -0.195

[[record]]
binder = "Clone730PsrP (Streptococcus pneumoniae) (protein) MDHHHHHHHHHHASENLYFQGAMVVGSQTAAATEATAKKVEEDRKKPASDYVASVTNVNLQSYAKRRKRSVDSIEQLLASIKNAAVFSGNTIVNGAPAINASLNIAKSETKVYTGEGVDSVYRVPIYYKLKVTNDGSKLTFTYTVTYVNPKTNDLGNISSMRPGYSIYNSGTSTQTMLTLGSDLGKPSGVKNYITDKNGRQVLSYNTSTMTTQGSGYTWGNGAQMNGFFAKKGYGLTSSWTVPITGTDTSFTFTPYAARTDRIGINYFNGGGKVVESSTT"
result = 0.189

[[record]]
binder = "FimA-N2 (Actinomyces oris) (protein) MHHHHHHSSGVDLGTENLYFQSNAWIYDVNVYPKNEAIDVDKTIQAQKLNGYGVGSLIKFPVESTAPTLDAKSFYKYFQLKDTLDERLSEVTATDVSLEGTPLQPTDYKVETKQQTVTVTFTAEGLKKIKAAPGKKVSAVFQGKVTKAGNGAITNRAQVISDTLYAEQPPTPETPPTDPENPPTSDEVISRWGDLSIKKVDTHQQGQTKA"
result = 2.69

[[record]]
binder = "FaeGac (Escherichia coli) (protein) WMTGDFNGSVDIGGSITADDYRQKWEWKVGTGLNGFGNVLNDLTNGGTKLTITVTGNKPILLGRTKEAFATPVTGGVDGIPHIAFTDYEGASVVLRNPDGETNKKGLAYFVLPMKNAEGTKVGSVKVNASYAGVLGRGGVTSADGELLSLFADGLSSIFYGGLPRGSELSAGSAAAERTKLFGSLSRNDILGQIQRVNANITSLVDVAGSYRENMEYTDGTVVSAAYALGIANGQTIEATFNQAVTTSTQWSAPLNVAITYY"
result = 0.384

[[record]]
binder = "CIH1 (Colletotrichum higginsianum) (protein) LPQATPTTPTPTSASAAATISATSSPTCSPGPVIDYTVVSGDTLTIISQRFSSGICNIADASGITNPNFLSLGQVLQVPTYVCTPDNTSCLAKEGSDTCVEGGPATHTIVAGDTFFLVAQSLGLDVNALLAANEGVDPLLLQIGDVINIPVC"
result = -0.067

[[record]]
binder = "HA-00510 (Pseudomonas aeruginosa), Q02V39_PSEAB (protein) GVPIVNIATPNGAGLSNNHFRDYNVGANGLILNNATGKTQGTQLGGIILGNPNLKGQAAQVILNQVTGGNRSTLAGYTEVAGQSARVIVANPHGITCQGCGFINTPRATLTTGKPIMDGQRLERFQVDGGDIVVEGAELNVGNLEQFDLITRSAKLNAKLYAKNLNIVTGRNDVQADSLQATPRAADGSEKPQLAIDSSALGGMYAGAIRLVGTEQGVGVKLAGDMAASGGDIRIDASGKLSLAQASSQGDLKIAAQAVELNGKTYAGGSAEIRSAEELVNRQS"
result = -0.217

